Reported remaining at 1 h, 333.33 µM values follow for various molecules
test: Stability in human serum; format: in vitro ADME; settings: 25 % (v/v)

>  <Molecule>
CC[C@H](C)[C@H](NC(=O)[C@H](CCCCN)NC(=O)[C@H](CCCCN)NC(=O)[C@H](Cc1ccccc1)NC(=O)[C@H](CC(C)C)NC(=O)[C@@H](CCCCN)NC(=O)[C@@H](N)CCCCN)C(=O)N[C@@H](CC(C)C)C(=O)N[C@@H](CCCCN)C(=O)N[C@@H](Cc1ccc(O)cc1)C(=O)N[C@@H](CC(C)C)C(N)=O [BP145]

>  <remaining at 1 h, 333.33 µM, %>
35

$$$$
>  <Molecule>
CC[C@H](C)[C@H](NC(=O)[C@H](CCCCN)NC(=O)[C@H](CCCCN)NC(=O)[C@H](Cc1ccccc1)NC(=O)[C@H](CC(C)C)NC(=O)[C@H](CCCCN)NC(=O)[C@@H](N)CCCCN)C(=O)N[C@@H](CC(C)C)C(=O)N[C@@H](CCCCN)C(=O)N[C@@H](Cc1ccccc1)C(=O)N[C@@H](CC(C)C)C(N)=O [BP76]

>  <remaining at 1 h, 333.33 µM, %>
15

$$$$
